FYI, the data here is from ChEMBL document CHEMBL6114992.

Test system: THP-1
Assay: Antiproliferative activity against human THP-1 cells assessed as inhibition of cell growth incubated for 72 hrs by MTT assay
Format: functional, cell-based
Conditions: THP-1, 72 h
Reported IC50 values for the following compounds.

I have this compound here, O=C(/C=C/c1ccccc1Br)c1cnccn1 , and I need its recorded IC50.
15.5 µM

Requested field: IC50. Item: Cc1nccnc1C(=O)/C=C/c1cc2ccccc2o1
1.9 µM

// query IC50 value for entry CCc1nccnc1C(=O)/C=C/c1cc2c(cc1[N+](=O)[O-])OCO2
3.19 µM

What value of measured IC50 is listed for COc1ccc(/C=C/C(=O)c2cnccn2)cc1 ?
10.3 µM

Request the reported IC50 associated with CCc1nccnc1C(=O)/C=C/c1cc2ccccc2o1
12.9 µM

* * *

System: THP-1
Assay: Antiproliferative activity against human THP-1 cells assessed as inhibition of cell growth incubated for 72 hrs by MTT assay
Format: functional, cell-based
Settings: THP-1, 72 h
pIC50: −log10 of the molar value.
Rule: pIC50 under 5 gives F, otherwise T.

{"columns": ["mol", "assigned-label"],
 "data": [
  ["CC(/C=C/C(=O)c1nccnc1C)=C\\c1ccccc1", "T"],
  ["Cc1nccnc1C(=O)/C=C/c1ccc(Cl)cc1", "F"],
  ["Cc1nccnc1C(=O)/C=C/c1cccc([N+](=O)[O-])c1", "T"]
]}

Check if pIC50 >= 5 (inclusive). Item: Cc1nccnc1C(=O)/C=C/c1ccc(C#N)cc1
T

Is it the case that Cc1nccnc1C(=O)/C=C/c1ccc(C(F)(F)F)cc1 has pIC50 reaching or exceeding 5?
T

Has Cc1ccc(/C=C/C(=O)c2nccnc2C)cc1 a recorded pIC50 greater than or equal to 5?
T

Does Cc1cccc(/C=C/C(=O)c2nccnc2C)c1 have a reported pIC50 of at least 5?
T

Exam item: decide whether the reported pIC50 for CCc1nccnc1C(=O)/C=C/c1ccc(OC)cc1 is at least 5.
T

Reported pIC50 reaches at least 5 for Cc1nccnc1C(=O)/C=C/c1ccccn1 ?
T

Assess whether reported pIC50 for Cc1nccnc1C(=O)/C=C/c1ccc(Br)cc1 sits at 5 or higher.
F

* * *

Test system: KG-1
Test: Antiproliferative activity against human KG-1 cells assessed as inhibition of cell growth incubated for 72 hrs by MTT assay
Type: functional, cell-based
Conditions: KG-1, 72 h
pIC50 values for the compounds below.
// scale note: pIC50 = -log10(conc_M); give the bare number

Returns the measured pIC50 for the input compound. Input: O=C(/C=C/c1ccccc1)c1cnccn1
4.97

# lookup: pIC50 of CCc1nccnc1C(=O)/C=C/C=C/CCC=C(C)C
4.45

Dear colleague, I am looking for the recorded pIC50 of the following compound: Cc1nccnc1C(=O)/C=C/c1cccc(F)c1
5.71

* * *

System: KG-1
Experiment: Antiproliferative activity against human KG-1 cells assessed as inhibition of cell growth incubated for 72 hrs by MTT assay
Assay type: functional, cell-based
Conditions: KG-1, 72 h
measurement-type: pIC50
Note on units: pIC50 is unitless, being -log10 of a concentration expressed in mol/L.

# example entries with known answers
{"columns": ["mol", "pIC50"],
 "data": [
  ["CC(/C=C/C(=O)c1nccnc1C)=C\\c1ccccc1", 5.32],
  ["O=C(/C=C/c1ccccc1Br)c1cnccn1", 5.05]
]}

Turning now to a further compound:
Reported pIC50, compound CCc1nccnc1C(=O)/C=C/c1cccc(Cl)c1 : ____
5.44
